Each recorded value in this set is attributed to patent US5366726A.

Assay: Example 3: serum pentamidine concentrations
Format: in vivo
Conditions: human, inhaled or intranasal, 300 mg, serum pentamidine concentration at end of therapy, 2 patients
measurementName: concentration at 504 h (ng/mL)
Reply with just the number (in ng/mL).

The measured concentration at 504 h associated with N=C(N)c1ccc(OCCCCCOc2ccc(C(=N)N)cc2)cc1 reads 22
